Exercise: for every item that follows, state its recorded inhibition at 10 µM.
Target: human B1R receptor (hB1R) (Homo sapiens, UniProt P46663)
Construct: host or cells: CHO K1 cells
Sequence (P46663 1-353): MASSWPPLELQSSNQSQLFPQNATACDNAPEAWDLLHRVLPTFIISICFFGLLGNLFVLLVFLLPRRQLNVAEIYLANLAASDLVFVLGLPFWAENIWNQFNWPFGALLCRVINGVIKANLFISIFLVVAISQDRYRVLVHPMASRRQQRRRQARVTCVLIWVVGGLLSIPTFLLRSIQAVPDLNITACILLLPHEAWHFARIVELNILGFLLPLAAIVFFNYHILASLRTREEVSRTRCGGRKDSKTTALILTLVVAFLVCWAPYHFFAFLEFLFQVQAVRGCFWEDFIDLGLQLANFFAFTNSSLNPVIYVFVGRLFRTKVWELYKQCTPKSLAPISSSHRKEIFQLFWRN
Assay: FLIPR Ca2+ assay (Fluo-4) on CHO K1 cells stably transfected with the human B1R gene
Assay type: cell-based
Conditions: CHO-K1; test substance 10 μM; agonist Lys-Des-Arg9-bradykinin 0.5 nM; % inhibition compared to the maximum achievable inhibition
Your answer should be a plain number; it is taken to be in %.

Determine its reported inhibition at 10 µM: CCC1c2cccn2CCN1C(=O)CCC1CCCCN1S(=O)(=O)c1c(C)cc(OC)cc1C (centres unmarked)
95

Determine its reported inhibition at 10 µM: COc1cc(C)c(S(=O)(=O)N2CCCCC2COCC(=O)N2CCn3cc(-c4ccncc4)nc3C2)c(C)c1 (centres unmarked)
100

Determine its reported inhibition at 10 µM: COc1cc(C)c(S(=O)(=O)N2CCCCC2COCC(=O)N2CCn3cccc3C2C(C)C)c(C)c1 (centres unmarked)
102

Determine its reported inhibition at 10 µM: Cc1cc(C)c(S(=O)(=O)N2CCCCC2COCC(=O)N2CCn3cccc3C2c2cccc(F)c2)c(C)c1 (centres unmarked)
73

Determine its reported inhibition at 10 µM: CCC1c2ccc(CN(C)C)n2CCN1C(=O)COCC1CCCCN1S(=O)(=O)c1c(C)cc(OC)cc1C (centres unmarked)
104

Determine its reported inhibition at 10 µM: COc1cc(C)c(S(=O)(=O)N2CCCCC2COCC(=O)N2CCn3ncnc3C2)c(C)c1 (centres unmarked)
36

Determine its reported inhibition at 10 µM: COc1cc(C)c(S(=O)(=O)N2CCCCC2COCC(=O)N2CCn3c(CCc4ccncc4)ccc3C2)c(C)c1 (centres unmarked)
99

Determine its reported inhibition at 10 µM: Cc1cc(C)c(S(=O)(=O)N2CCCCC2COCC(=O)N2CCn3cccc3C2c2ccc(Cl)nc2)c(C)c1 (centres unmarked)
99

Determine its reported inhibition at 10 µM: CCCCC1c2ccc(CN(C)C)n2CCN1C(=O)COCC1CCCCN1S(=O)(=O)c1c(C)cc(C)cc1C (centres unmarked)
103

Determine its reported inhibition at 10 µM: CCC1c2ccc(C)n2CCN1C(=O)COCC1CCCCN1S(=O)(=O)c1c(C)cc(C)cc1C (centres unmarked)
97

Determine its reported inhibition at 10 µM: COc1cc(C)c(S(=O)(=O)N2CCCCC2CCCC(=O)N2CCn3cc(-c4ccncc4)nc3C2)c(C)c1 (centres unmarked)
85

###

Target: B1R receptor of rats (rB1R) (Rattus norvegicus)
Construct: host or cells: CHO K1 cells
Sequence (P97583 whole entry): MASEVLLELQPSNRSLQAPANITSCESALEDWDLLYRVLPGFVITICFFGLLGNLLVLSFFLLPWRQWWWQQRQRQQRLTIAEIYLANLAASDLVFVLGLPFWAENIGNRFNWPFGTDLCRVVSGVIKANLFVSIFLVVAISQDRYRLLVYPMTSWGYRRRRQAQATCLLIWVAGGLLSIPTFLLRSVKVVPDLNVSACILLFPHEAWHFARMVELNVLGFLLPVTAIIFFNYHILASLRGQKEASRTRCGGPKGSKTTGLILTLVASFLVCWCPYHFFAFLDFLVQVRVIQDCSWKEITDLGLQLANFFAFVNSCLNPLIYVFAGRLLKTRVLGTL
Experiment: FLIPR Ca2+ assay (Fluo-4) on CHO K1 cells stably transfected with the B1R gene of rats
Format: cell-based
Conditions: CHO-K1; test substance 10 μM; agonist Des-Arg9-bradykinin 100 nM; % inhibition compared to the maximum achievable inhibition
Measured metric: inhibition at 10 µM (%)
Your answer should be a plain number; it is taken to be in %.

Determine its reported inhibition at 10 µM: Cc1cc(S(=O)(=O)N2CCCCC2CCC(=O)N2CCn3c(CN4CCOCC4)ccc3C2)c(C)cc1Cl (stereo not shown)
57

Determine its reported inhibition at 10 µM: COc1cc(C)c(S(=O)(=O)N2CCCCC2COCC(=O)N2CCn3c(CN(C)C)ccc3C2CCc2ccccc2)c(C)c1 (stereo not shown)
101

Determine its reported inhibition at 10 µM: CCC1c2ccc(CN(C)C)n2CCN1C(=O)COCC1CCCCN1S(=O)(=O)c1c(C)cc(C)cc1C (stereo not shown)
100

Determine its reported inhibition at 10 µM: COc1cc(C)c(S(=O)(=O)N2CCCCC2CCC(=O)N2CCn3c(CCc4cccnc4)ccc3C2)c(C)c1 (stereo not shown)
101

Determine its reported inhibition at 10 µM: COc1cc(C)c(S(=O)(=O)N2CCCCC2COCC(=O)N2CCn3ncnc3C2)c(C)c1 (stereo not shown)
102

Determine its reported inhibition at 10 µM: COc1cc(C)c(S(=O)(=O)N2CCCCC2COCC(=O)N2CCn3c(CN4CCOCC4)ccc3C2)c(C)c1 (stereo not shown)
101

Determine its reported inhibition at 10 µM: COc1cc(C)c(S(=O)(=O)N2CCCCC2COCC(=O)N2CCn3c(CN4CCCC4)ccc3C2c2ccccc2)c(C)c1 (stereo not shown)
101

Determine its reported inhibition at 10 µM: COc1cc(C)c(S(=O)(=O)N2CCCCC2COCC(=O)N2CCn3c(CN4CCCCC4)ccc3C2c2ccccc2)c(C)c1 (stereo not shown)
103

Determine its reported inhibition at 10 µM: Cc1cc(C)c(S(=O)(=O)N2CCCCC2COCC(=O)N2CCn3c(C)ccc3C2C(C)C)c(C)c1 (stereo not shown)
103

Determine its reported inhibition at 10 µM: COc1cc(C)c(S(=O)(=O)N2CCCCC2COCC(=O)N2CCn3cccc3C2c2cccnc2)c(C)c1 (stereo not shown)
98
